// values below are reported terephthalic acid
# measurement description: terephthalic acid (TPA) released, HPLC; higher = more TPA released; extreme values may be limits of the assay
# measurement context: PET substrate: aFilm; 70 °C; pH 7.5; 24 h
The answer consists of two parts: a number and, after it, its unit.

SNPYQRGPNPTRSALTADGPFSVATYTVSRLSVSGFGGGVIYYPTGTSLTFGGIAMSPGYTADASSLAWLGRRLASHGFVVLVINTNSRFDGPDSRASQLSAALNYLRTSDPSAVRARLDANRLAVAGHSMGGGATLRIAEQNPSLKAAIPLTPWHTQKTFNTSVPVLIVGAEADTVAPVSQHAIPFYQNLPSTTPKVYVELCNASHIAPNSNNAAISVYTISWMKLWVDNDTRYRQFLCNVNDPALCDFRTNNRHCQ [LCC-ICCG DAQI] : 2.26 mM
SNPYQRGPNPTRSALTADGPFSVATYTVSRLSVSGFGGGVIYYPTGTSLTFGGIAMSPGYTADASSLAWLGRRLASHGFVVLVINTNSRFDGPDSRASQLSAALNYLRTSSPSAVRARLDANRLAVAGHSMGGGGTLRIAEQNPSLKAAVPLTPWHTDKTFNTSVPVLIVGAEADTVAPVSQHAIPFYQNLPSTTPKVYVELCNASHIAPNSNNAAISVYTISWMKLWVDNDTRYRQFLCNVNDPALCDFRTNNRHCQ [LCC-ICCG] : 2.48 mM
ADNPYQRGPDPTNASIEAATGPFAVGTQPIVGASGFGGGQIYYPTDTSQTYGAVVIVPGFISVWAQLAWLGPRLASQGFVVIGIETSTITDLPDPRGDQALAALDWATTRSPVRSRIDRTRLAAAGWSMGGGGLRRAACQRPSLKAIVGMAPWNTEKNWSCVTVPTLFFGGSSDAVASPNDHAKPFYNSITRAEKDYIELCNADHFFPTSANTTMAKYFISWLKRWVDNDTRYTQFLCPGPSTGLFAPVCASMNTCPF [CaPETaseM9] : 0 mM

// moving on: another record for terephthalic acid
Notebook: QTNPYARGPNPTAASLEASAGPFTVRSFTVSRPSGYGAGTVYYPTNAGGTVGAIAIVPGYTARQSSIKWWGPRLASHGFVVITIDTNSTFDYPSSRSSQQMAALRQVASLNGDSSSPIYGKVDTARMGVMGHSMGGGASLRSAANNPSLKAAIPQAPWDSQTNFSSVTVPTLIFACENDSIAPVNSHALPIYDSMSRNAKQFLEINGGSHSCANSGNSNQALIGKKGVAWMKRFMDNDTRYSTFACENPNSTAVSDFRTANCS [DuraPETase] , terephthalic acid read as 0.0128 mM
